- Assay: Plasma stability assay
- Format: in vitro ADME, BALB/c nude mice
- Measurement setup: BALB/c nude, mouse
Bridge positions count the residues as written; N and C are the ends. Square brackets hold non-standard residues; d marks the D form. Peptide text beside a SMILES is read from it. 2Nal = N[C@@H](Cc1ccc2ccccc2c1)C(=O)O; S5 = C=CCCC[C@](C)(N)C(=O)O
Assay endpoint: half-life at 2 µM (h)
Kindly provide the numeric value in h only, without the unit symbol.

Given the entry CC[C@H](C)[C@@H]1NC(=O)[C@@](C)(NC(=O)[C@H](CCCNC(=N)N)NC(=O)[C@H](CC(C)C)NC(=O)[C@@H](NC(=O)[C@H](CCC(N)=O)NC(=O)[C@H](CC(C)C)NC(C)=O)[C@@H](C)O)CCCC=CCCC[C@@](C)(C(=O)N[C@@H](CC(C)C)C(=O)N[C@@H](Cc2ccc3ccccc3c2)C(N)=O)NC(=O)[C@H](CCCNC(=N)N)NC(=O)[C@H](CCC(N)=O)NC1=O [hsBCL9CT-24] (Ac-LQTLR[S5]IQR[S5]L[2Nal]-NH2; staple 6-10) , report its measured half-life at 2 µM.
5.13
